- EXPERIMENTAL_TARGET: pre-pro-human insulin
Some proteins, each annotated with its measured Selectivity.

Here are 2 proteins together with their reported answers.
1) trypsin variant SEQ ID NO: 40 (protein) IVGGYTCAANSIPYQVSLNSGSHRCGGSLINSQWVVSAAHCYKSRIQVRLGEHNIDVLEGNEQFINAAKIITHPNFNGNTLDNDIMLIKLSSPATLNSRVATVSLPRSCAAAGTECLISGWGNTKSSGSSEPSLLQCLKAPVLSDSSCKSSYPGQITGNMICVGFLEGGKDACQGDSGGPVVCNGQLQGIVSSGYGCAQKNKPGVYTKVCNYVNWIQQTIAAN | >80%
2) trypsin variant SEQ ID NO: 89 (protein) IVGGYTCAANSIPYQVSLNSGSHRCGGSLINSQWVVSAAHCYKPRIQVRLGEHNIHVLEGNEQFINAAKIITHPNFNPNTLDNDIMLIKLSSPATLNSHVATVSLPTSCAAAGTECLISGWGNTASSGSSMPSLLQCLKAPVLSDSSCKSSYPGQITGNMICVGFLEGGKDACQGDSGGPVVCNGQLQGIVSSGYGCAQKNKPGVYTKVCNYVNWIQQTIAAN | >90%

What Selectivity value was documented for this protein, trypsin variant SEQ ID NO: 109 (protein) IVGGYTCAANSIPYQVSLNSGSHRCGGSLINSQWVVSAAHCYKSRIQVRLGEHNIHVLEGNEQFINAAKIITHPNFNGNTLDNDIMLIKLSSPATLNSNVATVSLPTSCAAAGTECLISGWGNTCSSGSSMPSLLQCLKAPVLSDSSCKSSYPGQITGNMICVGFLEGGADACQGDSGGPVVCNGQLQGIVSSGYGCAQKNKPGVYTKVCNYVNWIQQTIAAN ?
>90%
